# viability values compiled below
Experiment: viability of HCT116 without oncogenic beta-catenin – human colon tumor cells, pilot screen (AID 823);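 note: 0% = wells killed by 20 µM Hyamine and 100% = untreated DMSO cell wells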
Details: HCT116 beta-catenin knockout viability, CellTiter-Glo, 60 h; at 10 µM; stronger effect = lower value
Results filed as inconclusive are left out. The source made the active and inactive calls.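 Rule for the calls: active = cell viability at or below a set limit in both duplicate runs, the limit being the all-compound median minus 4 SD (cut at about 23% in these data, passing the limit was not always enough); inconclusive = no clear call, values can overlap the other calls; inactive = the rest.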
attribute_measured: viability

COc1ccc(NC(=O)c2cnn3c(C(F)(F)F)cc(-c4ccco4)nc23)cc1OC ... 96.5% (inactive)
Cc1cc(NS(=O)(=O)c2ccccc2)no1 ... 99.9% (inactive)
COc1cc(C2NC(=O)NC(C)=C2C(=O)OCC2CCCO2)ccc1O (stereo unspecified) ... 91.1% (inactive)
COc1cc(OC)c(NC2c3ccccc3C(=O)N2c2cc(C)ccn2)cc1Cl (stereo unspecified) ... 92.9% (inactive)
C=CCN(C1CCCCC1)S(=O)(=O)c1ccc2c(c1)oc(=O)n2C ... 86.5% (inactive)
CCCCN(CC)CCNC(=O)c1cc2c(C)nc3ccccc3c2o1 ... 75% (inactive)
CCCc1nc(N)c(C#N)c(-c2cccnc2)c1CC ... 90.8% (inactive)
O=C(c1ccc(CSCc2ccccc2F)o1)N1CCN(c2ccc(N3CCOCC3)nn2)CC1 ... 83.6% (inactive)
COc1cc(OC)c(NS(=O)(=O)c2coc(C(N)=O)c2)cc1Cl ... 105% (inactive)
CCn1cc(C(=O)N2CCCC2)c(=O)c2cc(S(=O)(=O)N(C)C)ccc21 ... 106% (inactive)
COc1ccc(CNC(=O)c2ccc3c(c2)N(C)C(=O)CS3=O)cc1 (stereo unspecified) ... 103% (inactive)

====

# differential viability (reversal) values compiled below
Test: MRP1 drug-resistance reversers in H69AR cells – cell-based, doxorubicin co-treatment, pilot screen (AID 601)
Conditions: H69AR cells + 2 uM doxorubicin, CellTiter-Glo, 72 h; at 10 µM; stronger effect = higher value
attribute_measured: differential viability (reversal) (%)

O=C(c1ccc2nc(N3CCOCC3)sc2c1)N1CCCC1 ... 18.8
CCc1cccc(NC(=O)Cn2cc3c(n2)CCCC3)c1 ... 4.52
CCOc1ccc(NC(=O)C(C)Sc2nnc(C)n2C)cc1 (stereo unspecified) ... 2.75
CCOC(=O)CSC1=C(C#N)C(c2ccc(C)o2)CC(=O)N1 (stereo unspecified) ... -21.3
CCOC(=O)CCCOC(=O)c1ccc(S(=O)(=O)N(C)C)cc1 ... 1.72
COc1cc2[nH]c(=O)n(CCCCCC(=O)N3CCN(c4ccccn4)CC3)c(=O)c2cc1OC ... -2.77
CCOC(=O)N1CCN(C(=O)c2ccc3nc4ccsc4c(=O)n3c2)CC1 ... -1.36
CCOC(=O)N1CCC(NC(=O)Cn2c3c(c(-c4ccccc4Cl)cc2=O)CCC3)CC1 ... 0.145
Cc1ccccc1-n1c(Cn2c(=O)sc3ccccc32)nnc1SCC(=O)N1CCCC1 ... 12.6
CC(=O)c1sc(NC(=O)C2COc3ccccc3O2)nc1C (stereo unspecified) ... 11.4
O=C1c2ccccc2C(Nc2ccc(F)cc2F)N1CCN1CCOCC1 (stereo unspecified) ... -3.69

====

Assay: RAM pathway blockade in budding yeast – dse1pr::URA3 reporter, 5-FOA selection, pilot screen (AID 869);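 note: 0% = DMSO wells with no growth and 100% = 10 µM 1-NA-PP1 with full growth; RAM network block rescues cells from 5-FOA so hits raise OD615 growth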
Conditions: S. cerevisiae dse1pr::URA3 5-FOA growth, OD615, 2 d; at 10 µM; stronger effect = higher value; strain carries analog-sensitive mutant Cbk1 kinase
Categories are assigned from the measured inhibition using these intervals: low bracket: < 1%; middle bracket: ≥ 1% and < 2%; high bracket: ≥ 2%

CCOc1ccc(OCC)c(Nc2cc(C)nc3nc(C)nn23)c1 ... low bracket
Brc1ccc(-c2noc(CCc3ccccc3)n2)o1 ... high bracket
Cc1cc(C)nc(SCc2csc(N)n2)n1 ... low bracket
O/N=C1/CCc2cccc3cccc1c23 ... high bracket
CCOC(=O)c1cccc(NC2c3ccccc3C(=O)N2Cc2ccco2)c1 (configuration not stated) ... high bracket
COc1ccc(C2CC(c3ccc(C)cc3)Nc3ncnn32)cc1 (configuration not stated) ... middle bracket
Cc1c(C)c2ccc(OC3CCCCC3=O)cc2oc1=O (configuration not stated) ... low bracket
CCOc1ccc(NC(=O)CN(c2cc(C)cc(C)c2)S(=O)(=O)c2c(C)noc2C)cc1 ... high bracket
O=C(CCNS(=O)(=O)c1cccc2nsnc12)NCc1cccs1 ... middle bracket
c1ccc(-c2cn3cccnc3n2)cc1 ... high bracket
COc1ccc(CCNc2oc(COc3ccccc3Cl)nc2C#N)cc1OC ... middle bracket

====

# viability values compiled below
Test: viability of HCT116 without oncogenic beta-catenin – human colon tumor cells, pilot screen (AID 823);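 note: 0% = wells killed by 20 µM Hyamine and 100% = untreated DMSO cell wells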
Settings: HCT116 beta-catenin knockout viability, CellTiter-Glo, 60 h; at 10 µM; stronger effect = lower value
Inconclusive results are not listed. Calls of active or inactive are those of the source.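 Rule for the calls: active = cell viability at or below a set limit in both duplicate runs, the limit being the all-compound median minus 4 SD (cut at about 23% in these data, passing the limit was not always enough); inconclusive = no clear call, values can overlap the other calls; inactive = the rest.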
attribute_measured: viability

Cn1c2c(c(=O)n(C)c1=O)C1c3ccccc3OCC1C(C)(C)O2 (stereo unspecified) ... 98.7% (inactive)
CCOc1ccc(N(CC(=O)NC2CCCC(C)C2C)S(=O)(=O)c2c(C)noc2C)cc1 (stereo unspecified) ... 82.8% (inactive)
CCN(CC)CCn1c(=S)[nH]c2ccccc2c1=O ... 103% (inactive)
Cc1ccc2oc(=O)c3cnn(CC(=O)NCCc4ccsc4)c3c2c1 ... 90.7% (inactive)
CCN1CCN(CCCNC(=O)c2cc3sccc3n2CC)CC1 ... 96.9% (inactive)
CCCSc1nnc2nc3c(nn12)c1ccccc1n3C ... 105% (inactive)
COC(=O)c1ccc(NC(=O)CN2CCCC2)cc1 ... 98% (inactive)
Cc1onc(-c2ccccc2Cl)c1C(=O)Nc1ccc(S(=O)(=O)N2CCCC2)cc1 ... 86.3% (inactive)
CCOC(=O)/C(C#N)=C(/C)c1ccc(OC)cc1 ... 99.5% (inactive)
COc1ccc(CNC(=O)c2nnn(Cc3ccc(OC)cc3)c2N)cc1 ... 91% (inactive)
Cc1cnc(NC(=O)CSc2nnc(COc3c(C)cccc3C)o2)s1 ... 93.9% (inactive)

====

# viability values compiled below
Assay: viability of HCT116 without oncogenic beta-catenin – human colon tumor cells, pilot screen (AID 823);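 note: 0% = wells killed by 20 µM Hyamine and 100% = untreated DMSO cell wells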
Conditions: HCT116 beta-catenin knockout viability, CellTiter-Glo, 60 h; at 10 µM; stronger effect = lower value
Inconclusive results are not listed.
attribute_measured: viability (%)

Cc1ccc2c(c1)-c1c(cnn1CC(=O)NC(C)CCc1ccco1)CO2 (centres undefined) ... 88.8
O=C(Cn1nc(Cc2cccnc2)c2ccccc2c1=O)NCCCN1CCCC1=O ... 103
CC(C)c1ncc(C(O)c2cccc3ccccc23)n1C (centres undefined) ... 81.6
COc1ccc(N2C(=O)C3CCCN3C2c2cccc(C)c2)cc1 (centres undefined) ... 97.4
CC1Cn2c(nnc2-c2ccccc2O)S1 (centres undefined) ... 115
O=C(Nc1c(C(=O)Nc2ccccc2)cnn1-c1ccccc1)c1ccco1 ... 94.4
O=C(Cn1c(-c2cncs2)nc2ccccc21)NCCc1ccccc1 ... 99.6
COC(=O)CCC(=O)Nc1ccc(Br)cc1 ... 101
CCc1ccccc1S(=O)(=O)Cc1ccc(C(=O)N2CCN(c3ccccn3)CC2)o1 ... 84.1
Cc1ccc(NC(=O)C(C)N2CCOCC2)c(C(=O)c2ccccc2)c1 (centres undefined) ... 100
COc1ccccc1C1NC(=O)NC(C)=C1C(=O)Nc1cccc(C)c1C (centres undefined) ... 105
CCN1C(=O)c2ccccc2S(=O)c2ccc(C(=O)NC3CC3)cc21 (centres undefined) ... 97.6
O=c1[nH]c2ccc(Br)cc2c(-c2ccccc2)c1N1CCOCC1 ... 92.7
CCOc1ccc(N=C2NC(=O)C(CC(=O)O)S2)cc1 (centres undefined) ... 104
Cc1ccc2c(c1)c(C)c(C)n2CC(O)CN1CCCCC1C (centres undefined) ... 72.2
CSc1cccc(NC(=O)C2CCN(S(=O)(=O)c3ccc(F)cc3)CC2)c1 ... 64.3
O=C(CCN1C(=O)c2ccccc2C1=O)NCCN1CCOCC1 ... 93.8
Cn1cc(Cl)c(C(=O)NC2CCCC2)n1 ... 104
CCOc1ccc(N(CC(=O)NCCCOC)S(C)(=O)=O)cc1 ... 98.9
CCOc1ccc(NC(=O)CCN2CCN(c3ccccc3)CC2)cc1 ... 90.4
O=C(Nc1ccc(F)cc1)C1CCC(N2C(=O)c3ccccc3C2=O)CC1 (centres undefined) ... 86.3
Cc1ccc(-n2nnc3c(=O)n(CC(=O)OCc4ccccc4)cnc32)cc1 ... 92.6
O=C(c1ccc(CS(=O)(=O)c2c(Cl)cccc2Cl)o1)N1CCN(c2ccccn2)CC1 ... 97.8
Cc1c(NC(=O)c2noc3c2CCc2ccccc2-3)c(=O)n(-c2ccccc2)n1C ... 101
Cc1ccccc1-n1nc(C(=O)O)c(C)c(C#N)c1=O ... 97.8
CCOc1ccc(-n2c(Cc3cc(=O)[nH]c(=O)[nH]3)nnc2SC(C)C(=O)OC)cc1 (centres undefined) ... 101
CCOC(=O)N1CCN(C(=O)c2ccc(N3C(=O)c4ccccc4C3=O)cc2)CC1 ... 99
CC(NC(=O)C1CCC1)c1ccc2c(c1)OCO2 (centres undefined) ... 97.5
CCSc1nnc(Cc2cc(=O)[nH]c(=O)[nH]2)n1-c1cccc(C)c1 ... 105
Cn1c(=O)c2c(nc(CN3CCc4ccccc4C3)n2Cc2cccc(Cl)c2)n(C)c1=O ... 42.6
Cc1cc2cc(CNC(=O)c3ccc(S(=O)(=O)N4CCOCC4)cc3)ccc2[nH]1 ... 99.5
O=C(Nc1ccc(Cl)c(Cl)c1)c1ccncc1 ... 101
C=CCn1c(COc2ccc(CC)cc2)nnc1SC/C(O)=C(\C#N)c1nc2ccccc2[nH]1 ... 92.6
COc1ccc(S(=O)(=O)Cc2ccc(C(=O)NC3CC3)o2)cc1 ... 75.5
CCOC(=O)c1ccc(-n2c(C)nc3c(cnn3-c3ccccc3C)c2=O)cc1 ... 94.4
Cc1cc(C)cc(N(CC(=O)Nc2cccc(C)n2)S(=O)(=O)c2c(C)noc2C)c1 ... 73.4
CC(=O)N1CCN(CCN=CC2=C(O)CC(c3cccs3)CC2=O)CC1 (centres undefined) ... 93.1
CCOC(=O)CCc1c(C)nc2cc(-c3ccc(F)cc3)[nH]n2c1=O ... 95.8
CCN1C(=O)c2ccccc2S(=O)c2ccc(C(=O)NCc3ccccn3)cc21 (centres undefined) ... 105
O=C(NCCSc1c[nH]c2ccccc12)c1ccco1 ... 102
COC(=O)c1[nH]c2c(c1C)C(=O)CC(c1cc(OC)ccc1OC)C2 (centres undefined) ... 34.6
CC(O)Cc1nsc(NC(=O)c2cccs2)n1 (centres undefined) ... 104
COc1ccc(-c2nc(CS(=O)CC(=O)NCc3ccc(Cl)cc3)c(C)o2)cc1 (centres undefined) ... 72.4
COc1ccc(C)cc1S(=O)(=O)N1CCN(S(=O)(=O)c2cc(C)ccc2OC)CC1 ... 93.8
